system_tested: human progesterone receptor A (Homo sapiens, UniProt P06401)
Sequence (P06401 165-933): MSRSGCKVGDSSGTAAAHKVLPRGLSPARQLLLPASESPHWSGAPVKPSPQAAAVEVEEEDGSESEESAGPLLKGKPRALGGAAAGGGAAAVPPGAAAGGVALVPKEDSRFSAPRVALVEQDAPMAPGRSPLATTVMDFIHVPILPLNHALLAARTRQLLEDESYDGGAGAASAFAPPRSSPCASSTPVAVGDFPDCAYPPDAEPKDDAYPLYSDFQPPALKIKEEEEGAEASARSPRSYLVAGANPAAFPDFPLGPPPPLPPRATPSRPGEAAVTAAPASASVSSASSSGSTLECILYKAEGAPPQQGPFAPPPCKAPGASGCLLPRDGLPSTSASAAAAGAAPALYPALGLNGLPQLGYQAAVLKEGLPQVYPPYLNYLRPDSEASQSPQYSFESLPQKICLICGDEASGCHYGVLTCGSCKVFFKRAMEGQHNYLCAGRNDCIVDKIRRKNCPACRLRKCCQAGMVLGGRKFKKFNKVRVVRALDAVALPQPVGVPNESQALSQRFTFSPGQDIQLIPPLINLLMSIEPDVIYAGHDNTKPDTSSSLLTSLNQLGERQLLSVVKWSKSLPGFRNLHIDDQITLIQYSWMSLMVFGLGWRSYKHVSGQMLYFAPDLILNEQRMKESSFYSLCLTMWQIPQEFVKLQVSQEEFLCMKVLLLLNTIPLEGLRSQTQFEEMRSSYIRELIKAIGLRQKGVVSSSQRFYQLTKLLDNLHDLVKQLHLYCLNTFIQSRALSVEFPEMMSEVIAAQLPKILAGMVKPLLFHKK
assay_protocol: Progesterone receptor antagonistic effect in stably transfected SK-N-MC cells, MTV-LUC reporter (PR-A)
condition_notes: antagonism of 0.1 nmol/l promegestone, luciferase reporter, 24 hours
pIC50: −log10 of the molar value.
value_kind: pIC50

P. C[C@]12C[C@H](c3ccc(CN4CCCCC4)cc3)C3=C4CCC(=O)C=C4CC[C@H]3[C@@H]1CC[C@@]2(O)C(F)(F)C(F)(F)F
Q. C[C@]12C[C@H](c3ccc(CN4CCN(Cc5ccccc5)CC4)cc3)C3=C4CCC(=O)C=C4CCC3C1CC[C@@]2(O)C(F)(F)C(F)(F)F (stereo partly drawn)
R. CC(C)(C)OC(=O)N1CCCN(Cc2ccc([C@H]3C[C@@]4(C)[C@@H](CC[C@@]4(O)C(F)(F)C(F)(F)F)[C@@H]4CCC5=CC(=O)CCC5=C43)cc2)CC1
Input: List the 3 molecules shown above, ordered by increasing pIC50. Arrange the labels as the request states and list them.
Output: Q, P, R
(Q: 8.34, P: 8.85, R: 9.48)

====

system_tested: human progesterone receptor B (Homo sapiens, UniProt P06401)
Sequence (P06401 whole entry): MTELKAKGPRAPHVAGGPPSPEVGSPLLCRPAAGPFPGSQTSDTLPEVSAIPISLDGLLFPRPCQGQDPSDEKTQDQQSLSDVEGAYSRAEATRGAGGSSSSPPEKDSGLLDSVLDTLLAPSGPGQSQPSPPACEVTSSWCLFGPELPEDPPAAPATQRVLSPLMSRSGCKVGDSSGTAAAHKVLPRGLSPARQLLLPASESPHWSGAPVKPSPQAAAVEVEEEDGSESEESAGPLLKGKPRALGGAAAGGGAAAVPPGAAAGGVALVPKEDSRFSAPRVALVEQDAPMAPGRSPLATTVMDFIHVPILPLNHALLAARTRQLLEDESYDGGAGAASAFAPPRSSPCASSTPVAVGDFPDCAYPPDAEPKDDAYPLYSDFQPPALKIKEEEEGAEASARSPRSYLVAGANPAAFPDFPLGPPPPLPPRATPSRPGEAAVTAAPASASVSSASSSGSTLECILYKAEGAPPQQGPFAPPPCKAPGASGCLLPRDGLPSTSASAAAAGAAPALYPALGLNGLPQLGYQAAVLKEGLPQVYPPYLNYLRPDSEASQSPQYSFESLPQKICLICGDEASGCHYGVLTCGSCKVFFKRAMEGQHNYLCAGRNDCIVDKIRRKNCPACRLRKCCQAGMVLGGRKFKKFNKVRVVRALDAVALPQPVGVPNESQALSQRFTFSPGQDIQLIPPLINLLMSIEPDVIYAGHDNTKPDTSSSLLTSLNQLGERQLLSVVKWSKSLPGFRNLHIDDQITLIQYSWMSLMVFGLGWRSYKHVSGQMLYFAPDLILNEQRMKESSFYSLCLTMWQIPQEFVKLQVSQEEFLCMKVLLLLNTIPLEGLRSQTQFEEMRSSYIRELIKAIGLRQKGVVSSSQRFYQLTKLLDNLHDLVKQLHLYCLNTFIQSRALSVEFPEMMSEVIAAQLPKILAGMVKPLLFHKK
assay_protocol: Progesterone receptor antagonistic effect in stably transfected SK-N-MC cells, MTV-LUC reporter (PR-B)
condition_notes: antagonism of 0.1 nmol/l promegestone, luciferase reporter, 24 hours
value_kind: IC50 (nM)

Example entries and their recorded answers appear below.
- molecule: "CN(C)Cc1ccc([C@H]2C[C@@]3(C)C(CC[C@@]3(O)C(F)(F)C(F)(F)F)C3CCC4=CC(=O)CCC4=C32)cc1 (stereo partly drawn) [Example 1]"
  system_tested: "human progesterone receptor B (Homo sapiens, UniProt P06401)"
  experimental_value: 8.2
- molecule: "C[C@]12C[C@H](c3ccc(CN4CCN(S(C)(=O)=O)CC4)cc3)C3=C4CCC(=O)C=C4CC[C@H]3[C@@H]1CC[C@@]2(O)C(F)(F)C(F)(F)F [Example 12]"
  system_tested: "human progesterone receptor B (Homo sapiens, UniProt P06401)"
  experimental_value: 0.1
- molecule: "CC(C)(C)OC(=O)N1CCCN(Cc2ccc([C@H]3C[C@@]4(C)[C@@H](CC[C@@]4(O)C(F)(F)C(F)(F)F)[C@@H]4CCC5=CC(=O)CCC5=C43)cc2)CC1 [Example 6]"
  system_tested: "human progesterone receptor B (Homo sapiens, UniProt P06401)"
  experimental_value: 0.3
- molecule: "C[C@]12C[C@H](c3ccc(CN4CCOCC4)cc3)C3=C4CCC(=O)C=C4CC[C@H]3[C@@H]1CC[C@@]2(O)C(F)(F)C(F)(F)F [Example 7]"
  system_tested: "human progesterone receptor B (Homo sapiens, UniProt P06401)"
  experimental_value: 0.1
- molecule: "C[C@]12C[C@H](c3ccc(CN4CCS(=O)(=O)CC4)cc3)C3=C4CCC(=O)C=C4CCC3C1CC[C@@]2(O)C(F)(F)C(F)(F)F (stereo partly drawn) [Example 8]"
  system_tested: "human progesterone receptor B (Homo sapiens, UniProt P06401)"
  experimental_value: 0.3

1. C[C@]12C[C@H](c3ccc(CN4CCCCC4)cc3)C3=C4CCC(=O)C=C4CC[C@H]3[C@@H]1CC[C@@]2(O)C(F)(F)C(F)(F)F [Example 4]
2. C[C@]12C[C@H](c3ccc(CN4CCN(C(=O)c5ccccc5)CC4)cc3)C3=C4CCC(=O)C=C4CCC3C1CC[C@@]2(O)C(F)(F)C(F)(F)F (stereo partly drawn) [Example 13]
3. CC(C)(C)OC(=O)N1CCN(Cc2ccc([C@H]3C[C@@]4(C)[C@@H](CC[C@@]4(O)C(F)(F)C(F)(F)F)[C@@H]4CCC5=CC(=O)CCC5=C43)cc2)CC1 [Example 3]
4. COC(=O)C1CCN(Cc2ccc([C@H]3C[C@@]4(C)[C@@H](CC[C@@]4(O)C(F)(F)C(F)(F)F)[C@@H]4CCC5=CC(=O)CCC5=C43)cc2)CC1 [Example 5]
Input: List from greatest to least IC50. Arrange the labels as the request states and list them.
Output: 1, 4, 3, 2
